Ref: paper PMC6316713

# Assayed system: PDE4A1A (Homo sapiens, UniProt P27815)
# Construct: isoform PDE4A1A, human recombinant
# Sequence (P27815 265-886 limits assumed): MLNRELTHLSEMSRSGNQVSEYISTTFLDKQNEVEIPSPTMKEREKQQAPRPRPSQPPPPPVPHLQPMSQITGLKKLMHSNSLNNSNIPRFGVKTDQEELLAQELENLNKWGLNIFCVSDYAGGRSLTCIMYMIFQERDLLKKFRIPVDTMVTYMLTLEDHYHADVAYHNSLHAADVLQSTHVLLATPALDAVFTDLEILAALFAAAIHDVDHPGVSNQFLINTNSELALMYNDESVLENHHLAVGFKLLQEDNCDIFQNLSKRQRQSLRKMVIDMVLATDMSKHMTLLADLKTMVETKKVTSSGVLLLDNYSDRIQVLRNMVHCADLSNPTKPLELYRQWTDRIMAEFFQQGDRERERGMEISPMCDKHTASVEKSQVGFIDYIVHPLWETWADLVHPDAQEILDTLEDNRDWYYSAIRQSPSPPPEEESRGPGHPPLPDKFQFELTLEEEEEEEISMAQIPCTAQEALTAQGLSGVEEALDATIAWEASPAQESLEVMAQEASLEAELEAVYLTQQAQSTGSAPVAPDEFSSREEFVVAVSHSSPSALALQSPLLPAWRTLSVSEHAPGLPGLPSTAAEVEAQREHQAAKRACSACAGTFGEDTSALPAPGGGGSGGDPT
# Protocol description: IMAP FP PDE assay (FAM-cAMP), concentration-response
Endpoint: IC50 (nM)
Report the value in nM with no unit label.

Answer with the recorded IC50 for the molecule listed here: COc1ccc(/C=N/N(C)C(=O)c2cccs2)cc1OC
1080

----------
# Assayed system: adenosine A2A receptor (Homo sapiens, UniProt P29274)
# Construct: human recombinant, expressed in HEK 293 cells
# Sequence (P29274 whole entry): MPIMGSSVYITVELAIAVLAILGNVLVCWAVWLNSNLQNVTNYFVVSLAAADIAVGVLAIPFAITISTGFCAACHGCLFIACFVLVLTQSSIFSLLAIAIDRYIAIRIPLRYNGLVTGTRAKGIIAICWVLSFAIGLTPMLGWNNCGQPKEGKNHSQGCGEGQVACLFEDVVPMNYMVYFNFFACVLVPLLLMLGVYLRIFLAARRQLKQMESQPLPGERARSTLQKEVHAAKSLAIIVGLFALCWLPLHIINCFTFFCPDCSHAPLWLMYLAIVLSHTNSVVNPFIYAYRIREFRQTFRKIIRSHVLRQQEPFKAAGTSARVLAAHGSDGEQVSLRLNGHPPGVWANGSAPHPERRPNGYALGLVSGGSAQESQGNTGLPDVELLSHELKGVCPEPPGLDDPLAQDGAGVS
# Protocol description: radioligand displacement with [3H]-CGS21680
Endpoint: pKi
# pKi: negative log10 of molar concentration; output just the value

Answer with the recorded pKi for the molecule listed here: COc1ccc(/C=N/N(C)C(=O)c2cccs2)cc1OC
5.82
